Attribution: ChEMBL document CHEMBL5537125

- target_under_test: UniProt P21397
- Sequence (P21397 whole entry): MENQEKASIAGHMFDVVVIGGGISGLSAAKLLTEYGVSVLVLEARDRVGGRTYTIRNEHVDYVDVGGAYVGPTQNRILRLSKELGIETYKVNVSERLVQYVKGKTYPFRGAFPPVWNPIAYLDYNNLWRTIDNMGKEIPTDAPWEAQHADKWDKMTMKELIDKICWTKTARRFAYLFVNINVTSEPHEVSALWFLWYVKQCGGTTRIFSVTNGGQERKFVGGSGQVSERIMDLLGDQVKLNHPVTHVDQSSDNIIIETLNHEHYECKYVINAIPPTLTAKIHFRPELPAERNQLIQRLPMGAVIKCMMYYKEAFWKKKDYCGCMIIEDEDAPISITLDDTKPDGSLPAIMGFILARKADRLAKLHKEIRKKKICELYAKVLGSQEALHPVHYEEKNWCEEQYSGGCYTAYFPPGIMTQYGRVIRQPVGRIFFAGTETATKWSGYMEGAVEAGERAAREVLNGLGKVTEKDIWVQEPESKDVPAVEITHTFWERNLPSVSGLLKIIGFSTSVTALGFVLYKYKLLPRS
- protocol: Inhibition of human recombinant MAO-A using tyramine as substrate incubated for 20 mins by fluorometric assay
property: pIC50
Answers are plain numbers, as −log10 of the molar value.

These solved cases illustrate the format of a correct answer.
chemical_string	pIC50
O=c1c(-c2cc(-c3ccc(C(F)(F)F)cc3)no2)csc2ccccc12	4.07
O=c1c(-c2cc(-c3cccc(C(F)(F)F)c3)no2)csc2ccccc12	3.79
COc1ccc(-c2cc(C3=CS(=O)(=O)c4ccccc4C3=O)on2)cc1	4.19

Provide pIC50 values for the following items, in order.
1. O=C1C(c2cc(-c3ccc(Cl)cc3)no2)=CS(=O)(=O)c2ccccc21
2. O=c1c(-c2cc(-c3ccccc3C(F)(F)F)no2)csc2ccccc12

**Result**
4.42
4.67

###

- protocol: Cytotoxicity against differentiated human SH-SY5Y cells assessed as cell proliferation at 0.5 uM incubated for 24 hrs by MTT assay relative to control
- Type: toxicity, cell-based
- conditions_used: read-out: Activity
property: viability at 24 h, 0.5 µM (%)
One number for each entry, in %.

chemical_string	unit_name	viability at 24 h, 0.5 µM
COc1ccc(-c2cc(C3=CS(=O)(=O)c4ccccc4C3=O)on2)cc1	%	105

Next item in the queue.
**Query** Which value of viability at 24 h, 0.5 µM has been reported for O=C1C(c2cc(-c3ccccc3C(F)(F)F)no2)=CS(=O)(=O)c2ccccc21 in the records?
**Result** 108

###

Field: IC50. Provide a value for each of the molecules that follow.
- Tested on: MGC-803
- protocol: Antiproliferative activity against human MGC-803 cells assessed as reduction in cell viability incubated for 24 hrs by MTT assay
- Format: functional, cell-based
- conditions_used: MGC-803, 24 h
Numbers only, in µM.

These solved cases illustrate the format of a correct answer.
chemical_string	IC50 [µM]
O=C1C(c2cc(-c3ccccc3C(F)(F)F)no2)=CS(=O)(=O)c2ccccc21	37.7
COc1cccc(-c2cc(C3=CS(=O)(=O)c4ccccc4C3=O)on2)c1	43

Next item in the queue.
**Query** Which value of IC50 has been reported for O=C1C(c2cc(-c3cccc(C(F)(F)F)c3)no2)=CS(=O)(=O)c2ccccc21 in the records?
**Result** 39.6

###

- protocol: n-Octanol/water partition coefficient, logP of the compound at pH 7.4 by HPLC analysis
- Type: physicochemical
Field: logD. Provide a value for each of the compounds that follow.
Answers are plain numbers.

These solved cases illustrate the format of a correct answer.
chemical_string	test_value
O=C1C(c2cc(-c3ccccc3C(F)(F)F)no2)=CS(=O)(=O)c2ccccc21	2.63
Cc1cccc(-c2cc(-c3csc4ccccc4c3=O)on2)c1	3.44
Cc1ccccc1-c1cc(C2=CS(=O)(=O)c3ccccc3C2=O)on1	2.69

Provide logD values for the following items, in order.
1. COc1cccc(-c2cc(C3=CS(=O)(=O)c4ccccc4C3=O)on2)c1
2. Cc1ccc(-c2cc(C3=CS(=O)(=O)c4ccccc4C3=O)on2)cc1
3. O=C1C(c2cc(-c3ccc(C(F)(F)F)cc3)no2)=CS(=O)(=O)c2ccccc21
4. COc1ccc(-c2cc(C3=CS(=O)(=O)c4ccccc4C3=O)on2)cc1
5. O=C1C(c2cc(-c3cccc(Cl)c3)no2)=CS(=O)(=O)c2ccccc21
6. Cc1cccc(-c2cc(C3=CS(=O)(=O)c4ccccc4C3=O)on2)c1
7. COc1ccc(-c2cc(-c3csc4ccccc4c3=O)[nH]n2)cc1

**Result**
1: 2.39; 2: 2.77; 3: 2.37; 4: 2.62; 5: 4.17; 6: 3.23; 7: 3.43
